variants and their reported normalized RNA/DNA level with ligand (log10)
B1: library; a variant is named by its letters at N, in order (parent)
chain: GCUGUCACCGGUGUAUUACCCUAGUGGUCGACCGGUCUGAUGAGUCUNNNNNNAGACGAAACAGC

# Variants of: B1
# Measurement Protocol: normalized RNA/DNA level with ligand (relative to sTRSVctl = 100) (log10 (% of sTRSVctl)); ligand: hypoxanthine (xanthine aptamer); higher = less ribozyme self-cleavage, higher mRNA level
# Measurement Conditions: ligand concentration (+) RNA-Seq: 5 mM, HEK293T, reporter: mCherry (pCS4076), ligand present: yes
Answer as a number with no unit attached.

Look over these answered cases.
>  <Mutation>
CAACUU

>  <Recorded Number>
1.95

$$$$
>  <Mutation>
AACUAA

>  <Recorded Number>
1.94

$$$$
>  <Mutation>
GACUUG

>  <Recorded Number>
1.84

$$$$
>  <Mutation>
AACGUU

>  <Recorded Number>
1.91

$$$$
>  <Mutation>
CACACC

>  <Recorded Number>
1.99

$$$$
>  <Mutation>
AGUUAC

>  <Recorded Number>
1.89

$$$$

Prompt line: Name the recorded normalized RNA/DNA level with ligand (log10) for AUGUUC .
Response line: 1.94

Prompt line: Also, CCACCU please.
Response line: 2.03

Prompt line: Also, UUGACA please.
Response line: 1.95

Prompt line: Also, GAUCGU please.
Response line: 1.96

Prompt line: Also, GGCUCG please.
Response line: 1.98

Prompt line: Also, UUAGCG please.
Response line: 1.91

Entry source: the supplement of paper PMC6757056
